# system_tested: CDK7/CycH/MNAT1 (Homo sapiens (Human), UniProt P50613)
# Sequence (P50613 whole entry): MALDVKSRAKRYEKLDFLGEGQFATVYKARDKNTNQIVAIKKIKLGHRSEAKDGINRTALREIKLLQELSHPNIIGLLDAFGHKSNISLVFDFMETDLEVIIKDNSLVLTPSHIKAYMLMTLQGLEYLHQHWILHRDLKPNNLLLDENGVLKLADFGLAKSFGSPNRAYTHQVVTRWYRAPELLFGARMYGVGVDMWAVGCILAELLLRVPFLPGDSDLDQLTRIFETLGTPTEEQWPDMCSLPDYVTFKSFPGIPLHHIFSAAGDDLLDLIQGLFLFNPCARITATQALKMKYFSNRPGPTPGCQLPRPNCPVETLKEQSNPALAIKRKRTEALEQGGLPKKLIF
# Sequence (P51946 whole entry partner): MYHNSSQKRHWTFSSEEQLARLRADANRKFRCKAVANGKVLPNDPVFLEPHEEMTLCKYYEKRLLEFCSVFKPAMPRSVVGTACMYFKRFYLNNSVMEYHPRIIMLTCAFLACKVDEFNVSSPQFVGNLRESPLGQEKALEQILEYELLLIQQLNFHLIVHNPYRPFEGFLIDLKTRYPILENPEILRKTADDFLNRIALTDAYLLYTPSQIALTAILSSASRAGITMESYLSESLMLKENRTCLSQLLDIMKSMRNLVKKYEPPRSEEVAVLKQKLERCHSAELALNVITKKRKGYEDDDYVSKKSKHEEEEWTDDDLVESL
# Sequence (P51948 whole entry partner): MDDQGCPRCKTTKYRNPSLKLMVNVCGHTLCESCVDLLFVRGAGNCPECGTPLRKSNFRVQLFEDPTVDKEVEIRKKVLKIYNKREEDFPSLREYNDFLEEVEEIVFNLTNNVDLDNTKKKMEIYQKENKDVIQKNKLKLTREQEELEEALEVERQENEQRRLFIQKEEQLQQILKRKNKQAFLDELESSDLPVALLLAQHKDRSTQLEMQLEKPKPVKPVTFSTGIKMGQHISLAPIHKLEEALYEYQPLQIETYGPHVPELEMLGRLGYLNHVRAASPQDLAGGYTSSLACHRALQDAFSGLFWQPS
# measurement_notes: Biochemical Assay for CDK7 (TR-FRET kinase assay)
# condition_label: 10 μM compound; 60 min pre-incubation with kinase; 1 mM ATP
property_name: inhibition at 10 µM (%)

CC(C(=O)Nc1cc(C2CC2)[nH]n1)c1cccc(-c2ccc(NC(=O)/C=C/CN3CCCCC3)cn2)c1 (stereo not drawn): 84
CC(C(=O)Nc1cc(C2CC2)[nH]n1)c1cccc(-c2ccc(NC(=O)/C=C/CN3CCC(F)C3)c(F)n2)c1 (stereo not drawn): 94
COC[C@@H]1C[C@H](F)CN1C/C=C/C(=O)Nc1ccc(-c2cccc(C(C)C(=O)Nc3cc(C4CC4)[nH]n3)c2)cn1 (stereo partly drawn): 98

----------
# maps each entry to its IC50
# system_tested: CDK7/CycH/MNAT1 (Homo sapiens (Human), UniProt P50613)
# measurement_notes: Biochemical Assay for CDK7 (TR-FRET kinase assay)
# condition_label: 60 min pre-incubation with kinase; 1 mM ATP

Solved cases (4 shown):
CC(C(=O)Nc1cc(C2CC2)[nH]n1)c1cccc(-c2ccc(NC(=O)/C=C/CN3CCCCC3)nc2)c1 (centres unmarked): < 25 nM
C=CC(=O)Nc1ccc(-c2cccc(C(C)C(=O)Nc3cc(C4CC4)[nH]n3)c2)cn1 (centres unmarked) [Compound 20]: < 25 nM
C=CC(=O)Nc1ccc(-c2cccc(C(C)C(=O)Nc3cc(C4CC4)[nH]n3)c2)cn1 (single isomer, unassigned) [Compound 21]: > 100 nM
CC(C(=O)Nc1cc(C2CC2)[nH]n1)c1cc(-c2ccc(NC(=O)/C=C/CN(C)C)cc2)ccc1F (centres unmarked): > 100 nM

Moving on to another compound below.
Quick note, IC50 for C=CC(=O)Nc1ccc(-c2cccc(C(C)C(=O)Nc3cc(C4CC4)[nH]n3)c2)cc1 (centres unmarked) landed at > 100 nM

----------
# system_tested: CDK7/CycH/MNAT1 (Homo sapiens (Human), UniProt P50613)
# measurement_notes: Biochemical Assay for CDK7 (TR-FRET kinase assay)
# condition_label: 10 μM compound; 60 min pre-incubation with kinase; 1 mM ATP
property_name: inhibition at 10 µM (%)

CC(C(=O)Nc1cc(C2CC2)[nH]n1)c1cccc(-c2ccc(NC(=O)/C=C/CN3CCC(F)C3)nc2)c1 (centres unmarked): 89
C=CC(=O)Nc1ccc(-c2cccc(C(C)C(=O)Nc3cc(C4CC4)[nH]n3)c2)cn1 (single isomer, unassigned) [Compound 21]: 89
C=CC(=O)Nc1ccc(-c2cccc(C(C)C(=O)Nc3cc(CC)[nH]n3)c2)cc1 (centres unmarked): 89
CC(C(=O)Nc1cc(C2CC2)[nH]n1)c1cccc(-c2ccc(NC(=O)/C=C/CN(C)C)cc2)c1 (centres unmarked): 92
CC(C(=O)Nc1cc(C2CC2)[nH]n1)c1cccc(-c2ccc(NC(=O)/C=C/CN3CC[C@H](F)C3)nc2)c1 (single isomer, unassigned) [Compound 47]: 91

----------
# system_tested: CDK7/CycH/MNAT1 (Homo sapiens (Human))
# measurement_notes: Biochemical Assay for CDK7 (TR-FRET kinase assay)
# condition_label: 60 min pre-incubation with kinase; 1 mM ATP
pIC50: −log10 of the molar value.
property_name: pIC50

Solved cases (5 shown):
CC(C(=O)Nc1cc(C2CC2)[nH]n1)c1cccc(-c2ccc(NC(=O)/C=C/CN3CCOCC3)nc2)c1 (single isomer, unassigned) [Compound 11]: < 7.00
CC(C(=O)Nc1cc(C2CC2)[nH]n1)c1cccc(-c2ccc(NC(=O)/C=C/CN3CCC(F)C3)nc2)c1 (stereo not shown): > 7.60
CC(C(=O)Nc1cc(C2CC2)[nH]n1)c1cccc(-c2ccc(NC(=O)/C=C/CN3CCC(C#N)C3)nc2)c1 (stereo not shown): 7.00 to 7.60
CC(C(=O)Nc1cc(C2CC2)[nH]n1)c1cccc(-c2ccc(NC(=O)/C=C/CN(C)C)c(F)n2)c1 (stereo not shown): < 7.00
C=CC(=O)Nc1ccc(-c2cccc(C(C)C(=O)Nc3cc(C4CC4)[nH]n3)c2)cc1F (stereo not shown): 7.00 to 7.60

Quick note, pIC50 for CC(C(=O)Nc1cc(C2CC2)[nH]n1)c1cccc(-c2cncc(NC(=O)/C=C/CN3CCCC3)n2)c1 (stereo not shown) landed at 7.00 to 7.60

Quick note, pIC50 for COC[C@@H]1CCCN1C/C=C/C(=O)Nc1ccc(-c2cccc(C(C)C(=O)Nc3cc(C4CC4)[nH]n3)c2)cn1 (single isomer, unassigned) [Compound 71] landed at < 7.00

----------
# system_tested: CDK7/CycH/MNAT1 (Homo sapiens (Human))
# measurement_notes: Biochemical Assay for CDK7 (TR-FRET kinase assay)
# condition_label: 10 μM compound; 60 min pre-incubation with kinase; 1 mM ATP
property_name: inhibition at 10 µM (%)

CC(C)C(C(=O)Nc1cc(C2CC2)[nH]n1)c1cccc(-c2ccc(NC(=O)/C=C/CN3CCOCC3)nc2)c1 (stereo not shown) [Compound 44]: 99
CN(C)C/C=C/C(=O)Nc1ccc(-c2cccc(CC(=O)Nc3cc(C4CC4)[nH]n3)c2)cc1 [Compound 7]: 84
CC(C(=O)Nc1cc(C2CC2)[nH]n1)c1cccc(-c2cncc(NC(=O)/C=C/CN3CCOCC3)c2)c1 (stereo not shown) [Compound 60]: 99
CC(C(=O)Nc1cc(C2CC2)[nH]n1)c1cccc(-c2ccc(NC(=O)/C=C/CN(C)C)c(F)n2)c1 (stereo not shown) [Compound 38]: 94
COC(=O)[C@@H]1CCCN1C/C=C/C(=O)Nc1ccc(-c2cccc(C(C)C(=O)Nc3cc(C4CC4)[nH]n3)c2)cn1 (stereo partly shown) [Compound 81]: 100
CC(C(=O)Nc1cc(C2CC2)[nH]n1)c1cccc(-c2ccc(NC(=O)/C=C/CN3CCOCC3)nc2)c1 (stereo not shown) [Compound 10]: 99
CC(C(=O)Nc1cc(C2CC2)[nH]n1)c1cccc(-c2ccc(NC(=O)/C=C/CN3CCOCC3)c(F)n2)c1 (stereo not shown) [Compound 58]: 90
C=CC(=O)Nc1ccc(-c2cccc(C(C)C(=O)Nc3n[nH]c4ccccc34)c2)cc1 (stereo not shown) [Compound 90]: 83
COC[C@@H]1CCCN1C/C=C/C(=O)Nc1ccc(-c2cccc(C(C)C(=O)Nc3cc(C4CC4)[nH]n3)c2)cn1 (single isomer, unassigned) [Compound 71]: 81
CCN(CC)C/C=C/C(=O)Nc1ccc(-c2cccc(C(C)C(=O)Nc3cc(C4CC4)[nH]n3)c2)cn1 (stereo not shown) [Compound 55]: 95

----------
# system_tested: CDK7/CycH/MNAT1 (Homo sapiens (Human))
# measurement_notes: Biochemical Assay for CDK7 (TR-FRET kinase assay)
# condition_label: 60 min pre-incubation with kinase; 1 mM ATP
# maps each entry to its IC50

Solved cases (3 shown):
CC(C(=O)Nc1cc(C2CC2)[nH]n1)c1cccc(-c2ccc(NC/C=C/C(=O)N(C)C)cn2)c1 (stereo not shown) [Compound 37]: > 0.1 µM
C=CC(=O)Nc1ccc(-c2cccc(C(C)C(=O)Nc3cc(C4CC4)[nH]n3)c2)cc1C (stereo not shown) [Compound 66]: > 0.1 µM
CC(C(=O)Nc1cc(C2CC2)[nH]n1)c1cccc(-c2ccc(NC(=O)/C=C/CN3CC[C@@H](F)C3)nc2)c1 (single isomer, unassigned) [Compound 51]: > 0.1 µM

Observed IC50, CDK7/CycH/MNAT1 (Homo sapiens (Human)), C=CC(=O)Nc1ccc(-c2cccc(C(CC)C(=O)Nc3cc(C4CC4)[nH]n3)c2)cc1F (stereo not shown) [Compound 27] : < 0.025 µM

Observed IC50, CDK7/CycH/MNAT1 (Homo sapiens (Human)), CC(C(=O)Nc1cc(C2CC2)[nH]n1)c1cccc(-c2ccc(NC(=O)/C=C/CN(C)C)cc2F)c1 (stereo not shown) [Compound 17] : > 0.1 µM

Observed IC50, CDK7/CycH/MNAT1 (Homo sapiens (Human)), CC(C(=O)Nc1cc(C2CC2)[nH]n1)c1cccc(C2=CCN(C(=O)/C=C/CN(C)C)CC2)c1 (stereo not shown) [Compound 84] : > 0.1 µM

Observed IC50, CDK7/CycH/MNAT1 (Homo sapiens (Human)), CC(C(=O)Nc1cc(C2CC2)[nH]n1)c1cccc(-c2ccc(NC(=O)/C=C/CN3CCOCC3)c(F)c2)c1 (stereo not shown) [Compound 34] : > 0.1 µM

Observed IC50, CDK7/CycH/MNAT1 (Homo sapiens (Human)), CC(C(=O)Nc1cc(C2CC2)[nH]n1)c1cccc(-c2ccc3c(c2)CCN3C(=O)/C=C/CN(C)C)c1 (stereo not shown) [Compound 29] : < 0.025 µM

----------
# system_tested: CDK7/CycH/MNAT1 (Homo sapiens (Human), UniProt P50613)
# measurement_notes: Biochemical Assay for CDK7 (TR-FRET kinase assay)
# condition_label: 60 min pre-incubation with kinase; 1 mM ATP
pIC50: −log10 of the molar value.
# maps each entry to its pIC50

Quick note, pIC50 for CC(C(=O)Nc1cc(C2CC2)[nH]n1)c1cccc(-c2ccc(NC(=O)/C=C/CN3CCCC(F)C3)nc2)c1 (centres unmarked) [Compound 57] landed at > 7.60

Quick note, pIC50 for C=CC(=O)Nc1ccc(-c2cccc(C(C(=O)Nc3cc(C4CC4)[nH]n3)C(C)C)c2)cc1F (centres unmarked) [Compound 25] landed at 7.00 to 7.60

Quick note, pIC50 for COC(=O)[C@@H]1CCCN1C/C=C/C(=O)Nc1ccc(-c2cccc(C(C)C(=O)Nc3cc(C4CC4)[nH]n3)c2)cn1 (some centres unmarked) [Compound 81] landed at 7.00 to 7.60

Quick note, pIC50 for C=CC(=O)Nc1c(C)cc(-c2cccc(C(C)C(=O)Nc3cc(C4CC4)[nH]n3)c2)cc1C (centres unmarked) [Compound 67] landed at < 7.00

Quick note, pIC50 for CC(C(=O)Nc1cc(C(C)(C)C)[nH]n1)c1cccc(-c2ccc(NC(=O)/C=C/CN(C)C)cc2)c1 (centres unmarked) [Compound 9] landed at < 7.00

Quick note, pIC50 for CC(C(=O)Nc1cc(C2CC2)[nH]n1)c1cccc(-c2ccc(NC(=O)/C=C/CN3CCC(F)C3)c(F)n2)c1 (centres unmarked) [Compound 64] landed at 7.00 to 7.60

Quick note, pIC50 for C[C@H](C(=O)Nc1cc(C2CC2)[nH]n1)c1cccc(-c2ccc(NC(=O)/C=C/CN3CCOCC3)nc2)c1 [Compound 93] landed at > 7.60

Quick note, pIC50 for COC/C=C/C(=O)Nc1ccc(-c2cccc(C(C)C(=O)Nc3cc(C4CC4)[nH]n3)c2)cn1 (centres unmarked) [Compound 41] landed at < 7.00

Quick note, pIC50 for CC(C)C(C(=O)Nc1cc(C2CC2)[nH]n1)c1cccc(-c2ccc(NC(=O)/C=C/CN(C)C)c(F)c2)c1 (centres unmarked) [Compound 43] landed at > 7.60

Quick note, pIC50 for CC(C(=O)Nc1cc(C2CC2)[nH]n1)c1cccc(-c2ccc(NC(=O)/C=C/CN3CCCC3)nc2)c1 (single isomer, unassigned) [Compound 53] landed at > 7.60

Quick note, pIC50 for CC(C(=O)Nc1cc(C2CC2)[nH]n1)c1cccc(C2CCN(C(=O)/C=C/CN(C)C)CC2)c1 (centres unmarked) [Compound 85] landed at < 7.00

Quick note, pIC50 for CCC(C(=O)Nc1cc(C2CC2)[nH]n1)c1cccc(-c2ccc(NC(=O)/C=C/CN(C)C)c(F)c2)c1 (centres unmarked) [Compound 31] landed at > 7.60

Quick note, pIC50 for CC(C(=O)Nc1cc(C2CC2)[nH]n1)c1cccc(-c2ccc(NC(=O)/C=C/CN(C)C)cn2)c1 (centres unmarked) [Compound 16] landed at 7.00 to 7.60

Quick note, pIC50 for CON(C)C/C=C/C(=O)Nc1ccc(-c2cccc(C(C)C(=O)Nc3cc(C4CC4)[nH]n3)c2)cn1 (centres unmarked) [Compound 62] landed at < 7.00
